Test system: MCF7 breast
Experiment: NCI tumour cell line growth inhibition, 48 h
Each entry below lists one item and its recorded TGI value.

INSERT INTO assay_data (molecule, tgt, measured_result) VALUES
  ('Cc1ccc2sc3c(NCCCN)nc4ccccc4c3c(=O)c2c1', 'MCF7 breast', '3.36 µM'),
  ('Cc1ccsc1C(NC(=O)c1ccccc1)c1cc(Cl)c2cccnc2c1O (stereo not given)', 'MCF7 breast', '16.2 µM'),
  ('Clc1ccc2c(NC3CCC(N4CCCCC4)CC3)ccnc2c1 (stereo not given)', 'MCF7 breast', '> 100 µM');

In: Report TGI for CN1C(=O)N(C)C2C1NC(=S)N2/N=C/C=C/c1ccccc1[N+](=O)[O-] (stereo not given) please.
Out: > 100 µM

In: Report TGI for COP(=O)(CP(=O)(OC)OCCC(C)CCC=C(C)C)OC (stereo not given) please.
Out: > 100 µM

In: Report TGI for Oc1c(C(Nc2ccccn2)c2ccccc2)ccc2cccnc12 (stereo not given) please.
Out: > 100 µM

In: Report TGI for Cc1cc(OCc2ccc(C(F)(F)F)cc2)c2c(c1)C(=O)C=C(NCCN1CCCC1)C2=O please.
Out: 3.56 µM

In: Report TGI for O=[N+]([O-])c1c(O)c2nonc2c2nn(-c3ccccc3)nc12 please.
Out: > 100 µM

In: Report TGI for C1=CC2C(C3CN(c4ccccc4)N=C13)C1C3C4C=CC21C=CC43 (stereo not given) please.
Out: > 100 µM

In: Report TGI for COc1nn(C)cc1Nc1nccc(-c2c[nH]c3c(NC(=O)[C@@H](C)N4CCN(C)CC4)cccc23)n1 please.
Out: > 100 µM

----------
System: OVCAR-8 ovarian
Test: NCI tumour cell line growth inhibition, 48 h
Each entry below lists one item and its recorded TGI value.

INSERT INTO measurements (molecule, measured_result) VALUES
  ('Cc1ccc(C)n1-c1ccccc1C1C=Cn2c(=O)oc3c(OC(C)C)c(OC(C)C)c(O)c1c32 (stereo not drawn)', '> 100 µM');

In: Report TGI for O=C(Nc1cccc([N+](=O)[O-])c1)c1cccc(C(=O)Nc2cccc([N+](=O)[O-])c2)c1 please.
Out: > 100 µM

In: Report TGI for CCC(O)CCCCCCCCCCCCCCC(=O)O (stereo not drawn) please.
Out: > 100 µM

In: Report TGI for CCOC(=O)Cc1[nH]c(C(=O)c2ccccc2)cc1C(=O)c1ccccc1 please.
Out: > 10 µM

In: Report TGI for Cc1cc2nc3c(C#N)c(C)c(CCCl)c(Cl)n3c2cc1C please.
Out: 7.55 µM

In: Report TGI for O=[N+]([O-])c1ccc2c(c1)C(N1CCN(CCO)CC1)Cc1ccc(F)cc1S2 (stereo not drawn) please.
Out: 25.5 µM

In: Report TGI for CC1(C)CCC2=C(O1)c1ccccc1C(=Nc1ccc([N+](=O)[O-])cc1)C2=O please.
Out: > 100 µM

In: Report TGI for Cc1nc(N)c(N2CCN(S(=O)(=O)N(Cc3ccccc3)Cc3ccccc3)CC2)c(=O)[nH]1 please.
Out: > 100 µM

----------
Tested on: SK-MEL-2 melanoma
Experiment: NCI tumour cell line growth inhibition, 48 h
MEASURE: TGI

Here are 8 molecules together with their reported answers.
INSERT INTO measurements (molecule, measure, measured_result) VALUES
  ('COc1ccc(NC(=O)CSC(=O)c2ccccc2)c(SCCSSCCSc2cc(OC)ccc2NC(=O)CSC(=O)c2ccccc2)c1', 'TGI', '> 100 µM'),
  ('Cc1cc(N(CCC#N)CCC#N)ccc1/C(N=Nc1ccc(C(=O)O)cc1)=N\NC(=O)c1ccccc1', 'TGI', '> 100 µM'),
  ('C1=CC2C(C3CN(c4ccccc4)N=C13)C1C3C4C=CC21C=CC43 (stereo unspecified)', 'TGI', '> 100 µM'),
  ('CCCCCCCCCC1CC(=O)OC2=C1C(=O)CCC2 (stereo unspecified)', 'TGI', '> 100 µM'),
  ('COP(=O)(CP(=O)(OC)OCCC(C)CCC=C(C)C)OC (stereo unspecified)', 'TGI', '> 100 µM'),
  ('O=C(O)c1cc(NCc2cc(O)ccc2O)ccc1O', 'TGI', '> 100 µM'),
  ('Cc1nc(N)c(N2CCN(S(=O)(=O)N(Cc3ccccc3)Cc3ccccc3)CC2)c(=O)[nH]1', 'TGI', '> 100 µM'),
  ('C=CCc1c(O)c(C(=O)/C=C/c2ccc(Cl)cc2)c(OC)c2ccoc12', 'TGI', '14.7 µM');

In: Report TGI for CCC[CH2][Sn]1([CH2]CCC)[O]C(=O)c2cccc([N+](=O)[O-])c2C(=O)[O]1 please.
Out: 0.825 µM

In: Report TGI for CCOC(=O)N1CCC(N=C2CSc3nnc(-c4cc(C(F)(F)F)cc(C(F)(F)F)c4)n3N2)CC1 please.
Out: 3.6 µM

In: Report TGI for COc1ccc(C(C2=C(O)CC(C)OC2=O)C2=C(O)CC(C)OC2=O)cc1 (stereo unspecified) please.
Out: > 100 µM

In: Report TGI for CCN(CC)/N=C\c1c2ccccc2cc2ccccc12 please.
Out: 61.9 µM

In: Report TGI for CC(=O)OC1CC2(C)C(=CC1C1SCCS1)CCC1C2CCC2(C)C(OC(C)=O)CCC12 (stereo unspecified) please.
Out: > 100 µM

In: Report TGI for CC(=O)NC1C(OCc2ccccc2)OC(CO)C(O)C1OC(C)C(=O)NC(C(=O)NC(CCC(=O)NCCCNc1ccc([N+](=O)[O-])c2[nH]c3ccccc3c(=O)c12)C(N)=O)C(C)C (stereo unspecified) please.
Out: > 100 µM

In: Report TGI for Oc1c(C(Nc2ccccn2)c2ccccc2)ccc2cccnc12 (stereo unspecified) please.
Out: > 28.4 µM

In: Report TGI for O=C(CCCCCNC(=O)c1ccc(Cl)cc1)NO please.
Out: 7.22 µM

In: Report TGI for O=S(=O)(O)c1cc(S(=O)(=O)O)c2cc(N=Nc3ccc(N=Nc4ccc(/C=C/c5ccc(N=[N+]([O-])c6ccc(/C=C/c7ccc(N=Nc8ccc(N=Nc9ccc%10cc(S(=O)(=O)O)cc(S(=O)(=O)O)c%10c9)cc8)cc7S(=O)(=O)O)c(S(=O)(=O)O)c6)cc5S(=O)(=O)O)c(S(=O)(=O)O)c4)cc3)ccc2c1 please.
Out: > 100 µM

In: Report TGI for COc1ccc(C(=O)/C=C/c2ccc(OCc3cccc(C(F)(F)F)c3)c(OC)c2)cc1OC please.
Out: > 1000 µM

In: Report TGI for Clc1nc2nc(N3CCNCC3)nc(N3CCCC3)c2[nH]1 please.
Out: 35.4 µM

In: Report TGI for COc1cc2nc(-c3cccs3)nc(N3CCN(c4ccccc4)CC3)c2cc1OC please.
Out: > 100 µM

In: Report TGI for O=c1c(O)c(-c2ccccc2)oc2c(CP(=O)(O)O)cccc12 please.
Out: > 100 µM

In: Report TGI for CCC(=O)OCOc1ccc(/C=C2\CCC(CN(C)C)C2=O)cc1 (stereo unspecified) please.
Out: 27.9 µM

In: Report TGI for Nc1ccc(C#Cc2ccccc2C#CCCCCO)cc1 please.
Out: 37.1 µM

In: Report TGI for Cc1cc(N(CCC#N)S(=O)(=O)c2ccccc2)ccc1C=Nc1ccc(C(=O)O)cc1 please.
Out: 22.3 µM
